# Recorded conditions: in acetone, 293.15 K
Parameter: solubility (mole fraction)
API doc: respond with a numeric literal and nothing else, no unit.

Suppose we examine the molecule Nc1cc([N+](=O)[O-])ccc1Cl ; what solubility (mole fraction) value has been reported?
0.144

----------
# Recorded conditions: in toluene, 288.15 K
Parameter: solubility (mole fraction)
API doc: respond with a numeric literal and nothing else, no unit.

Suppose we examine the compound Nc1cc([N+](=O)[O-])ccc1Cl ; what solubility (mole fraction) value has been reported?
0.0174

----------
# Recorded conditions: in n-propanol, 273.15 K
Parameter: solubility (mole fraction)
API doc: respond with a numeric literal and nothing else, no unit.

Suppose we examine the molecule Nc1cc([N+](=O)[O-])ccc1Cl ; what solubility (mole fraction) value has been reported?
0.008
